# run.description: human hepatoma cell viability loss – ATP luminescence, cytotoxicity control for P. falciparum antimalarial project, primary screen (AID 2303);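 also: 0% = DMSO wells and 100% = digitonin-killed cells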
# test.context: HepG2 viability, 24-48 h, at 10 µM, hits give high values
quantity.name: inhibition (%)
Answer format: numeric, % implied, no suffix.

- N#Cc1ccc(-c2ccc(C(=O)NC3CCN(CCN4CCc5c(cccc5C(F)(F)F)C4)CC3)cc2)cc1: 40
- CC(=O)Nc1ccc(C(=O)Nc2ccc(-c3cccc(-c4nc5ccccc5[nH]4)c3)cc2)cn1: 34
- COc1ccc2ncc(F)c(CCN3CC[C@@H](CNCc4cc5c(cn4)OCS5)C3)c2n1: 3

Output measured inhibition for this item: c1nc2nc3c(c(Nc4ccc5c(c4)CCC5)n2n1)CCC3
-1

For the compound COc1ccc(-n2nc(C)c3c2NC(=O)CC3c2ccccc2OCc2ccc(F)cc2)cc1 (stereo not drawn) , give its reported inhibition.
53

In one line, give reported inhibition of the entry CC1(C)CCCN(C(=O)c2cccc(-n3nc(-c4ccc(Cl)cc4)cc3N)c2)C1 .
13

Assign inhibition to the following record: COc1ccc(NC(=O)Nc2ccc(-c3ccccc3)cc2)cc1Cn1nc(Cl)c(N2CCCNCC2)cc1=O
18

Dear colleague, please send me the reported inhibition for Nc1nc(N)c2cc(NS(=O)(=O)c3ccc(-c4ccccc4)cc3)ccc2n1 when you can.
7

---

# run.description: human hepatoma cell viability loss – ATP luminescence, cytotoxicity control for P. falciparum antimalarial project, primary screen (AID 2303);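 also: 0% = DMSO wells and 100% = digitonin-killed cells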
# test.context: HepG2 viability, 24-48 h, at 10 µM, hits give high values
Examples of compounds with documented inhibition follow.
Unit % implied. Number only.

Example entries begin here.
- NCc1cccc(-c2ccccc2CNC2CCN(Cc3ccccc3)CC2)c1: -3
- CCN(CC)CCCC(C)N=C(Nc1ccc(C#N)cc1O)Nc1ccccc1Br (stereo unspecified): 4
- CCc1nc(N)nc(N)c1-c1ccc(F)cc1: 52
- C=C(F)c1sc(CNCCCNc2nc3ccccc3[nH]2)c(C)c1Br: 15
- Cc1cc(=O)c(-c2ccc(OCc3ccc(OC(F)(F)F)cc3)cc2)c(C)[nH]1: 3

Supply reported inhibition belonging to this compound: Cc1ccc(-c2nnc(-c3ccc(C(=O)NC4CCN(Cc5ccc(C#N)cc5)CC4)cc3)o2)cc1Br
41

---

# experimental.target: L-lactate dehydrogenase (Plasmodium falciparum (isolate CDC / Honduras)) (UniProt Q27743)
# Sequence (Q27743 whole entry, looked up): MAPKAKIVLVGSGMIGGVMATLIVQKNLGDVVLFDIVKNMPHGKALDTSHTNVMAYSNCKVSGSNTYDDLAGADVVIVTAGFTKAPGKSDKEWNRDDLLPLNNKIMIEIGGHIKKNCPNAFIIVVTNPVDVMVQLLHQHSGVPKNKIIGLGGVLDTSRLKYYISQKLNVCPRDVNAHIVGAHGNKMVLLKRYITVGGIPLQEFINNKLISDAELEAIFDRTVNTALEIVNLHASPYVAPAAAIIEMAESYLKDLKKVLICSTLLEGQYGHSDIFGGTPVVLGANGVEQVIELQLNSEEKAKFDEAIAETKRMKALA
# run.description: PfLDH activity inhibition – cell lysate, 3D7 strain, counter-screen for P. falciparum growth inhibition project (AID 2304);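 also: 0% = vehicle and 100% = reference inhibitor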
# test.context: P. falciparum 3D7 crude extract, LDH APAD/NBT absorbance; at 2 µM; hits give high values
quantity.name: inhibition (%)
Field format: number, assumed %, no unit text.

These recorded examples may help you get a feel for the data.
• c1ccc(Nc2nc(-c3ccccn3)cs2)nc1 = 2
• O=C(Nc1ccsc1)Nc1cccc(-c2cccc(-c3nc4ccc(C(F)(F)F)cc4[nH]3)c2)c1 = -7
• Cc1cc(N[C@@H](Cc2ccccc2)C(=O)NCc2cccc(F)c2)nc(NCCc2ccccc2)n1 = 0

Give reported inhibition value for O=S(=O)(Nc1cccc(CCN2CCCCC2CCN2CCCC2)c1)c1ccc(-c2ccccc2)cc1 (stereo not drawn)
0

Determine from records and report inhibition for CCN1CCC(N(CCCCCCCCc2ccc(C(F)(F)F)cc2)C(=O)Cn2c(CCc3cccc(F)c3F)cc(=O)c3ccccc32)CC1
2

Annotate the compound CN1CCN(Cc2ccc(-c3ccc4ncnc(Nc5ccc(OCc6ccccc6)cc5)c4c3)o2)CC1 with its measured inhibition.
2

Using known records, supply inhibition for COc1ccc2nccc([C@@H](O)CN3CCC(NC(=O)Cc4cccc5c(Br)cccc45)CC3)c2c1
-3

Report inhibition, nothing else, for this compound: O=c1cc(NCCCNCc2ccc(Cl)c(Cl)c2)[nH]c2ccc(Cl)cc12
1

Annotate the compound N#Cc1ccc(-c2ccc(C(=O)NC3CCN(CCN4CCC(c5cn(CCO)c6ccccc56)CC4)CC3)cc2)cc1 with its measured inhibition.
-2

Tell me measured inhibition for C[C@@H](C(=O)N1CCOCC1)N1CC[C@H](NS(=O)(=O)c2ccc3ccnc(N)c3c2)C1=O please.
-4

Give inhibition for O=C(Cc1ccccc1)NC(CCN1CCC(N(C2CC2)S(=O)(=O)c2cccc(C(F)(F)F)c2)CC1)c1ccc(Cl)c(Cl)c1 (stereo not drawn)
6

Quote inhibition reported for Cc1nnc(Sc2ncnc3scc(-c4ccc(F)cc4)c23)s1 please.
4

Look up and report measured inhibition for this entry: COc1cccc(Nc2nc(C)cc(NC3CCN(Cc4ccccc4)CC3)n2)c1
8

Identify inhibition associated with the compound COc1ccc(CNCc2ccc(-c3cccc(-c4nc5ccc(C(F)(F)F)cc5[nH]4)c3)cc2)cc1
-8

Look up inhibition of CN(C)CCCNCc1ccc(-c2ccc(C(F)(F)F)cc2)cc1 and report it.
-4

Write down inhibition measured for item CNC(=O)c1cc(S(=O)(=O)N2CCN(c3ccccn3)CC2)cs1
-3

// provenance: PubChem BioAssay
